Origin of the recorded values: PubChem BioAssay (NCI)

Tested on: HOP-62 NSCLC
Assay: NCI tumour cell line growth inhibition, 48 h; in the data active = GI50 below about 0.43 µM; inactive = the rest
Entry note: the call must match one of active, inactive

Answered examples (5):
compound	assigned-class
C[C@H](CCOc1cccc(CC(=O)O)c1)N(Cc1cccc(C(F)(F)F)c1Cl)CC(c1ccccc1)c1ccccc1	inactive
O=c1[nH]c(-c2cccc(F)c2)cc2cc(F)ccc12	inactive
CCCCCCn1c(-c2ccc(C(=O)O/N=C(\N)c3ccc4c(c3)OCO4)cc2)nc(-c2ccccc2)c1-c1ccccc1	inactive
CNCCCNc1ccnc2cc(Cl)ccc12	inactive
CCOC(=O)Nc1c(C)nc2ccccn12	inactive

Field: outcome | Entry: CCCCNCCCNCCCNC(=O)c1csc(-c2csc(CCNC(=O)C(NC(=O)C(C)C(O)C(C)NC(=O)C(NC(=O)c3nc(C(CC(N)=O)NCC(N)C(N)=O)nc(N)c3C)C(OC3OC(CO)C(O)C(O)C3OC3OC(CO)C(O)C(OC(N)=O)C3O)c3cnc[nH]3)C(C)O)n2)n1 (stereo not drawn)
active

Query: recorded result category for C=C(C)C(C1C=C(CCC(C=O)=C(C)C)C(=O)O1)C1(OC)C=C(C)C(=O)O1 (stereo not drawn) in this test
inactive

Outcome logged for `COc1ccc(Cl)cc1NC(=O)c1ccc(NC2=C(Cl)C(=O)N(Cc3ccccc3)C2=O)cc1` in this assay:
inactive

For `COc1ccc(CNc2c3ccccc3nc3ccccc23)cc1F` , which call appears in the assay record?
inactive

Called result for `CN(C)CCN1CCC(Cc2ccccc2)CC1`
inactive

Hi, do you know how `CCOC(=O)c1c(C)c2c(n1Cc1ccccc1)CSCC2=O` came out in this test?
inactive

---

Test system: RXF-631 renal
Test: NCI tumour cell line growth inhibition, 48 h
Catalogue of TGI readings, one per entry.

Answered cases to consult:
compound	TGI
CCCCCCCCCCCC[N+]12CC[N+](CCN)(CC1)CC2	> 100 µM
CCCCCCCCc1cc2c(O)c(c1)Cc1cc(CCCCCCCC)cc(c1O)Cc1cc(CCCCCCCC)cc(c1O)Cc1cc(CCCCCCCC)cc(c1O)Cc1cc(CCCCCCCC)cc(c1O)Cc1cc(CCCCCCCC)cc(c1O)C2	> 100 µM

Item `Cc1nc2c(N)ncnc2o1` has what recorded TGI?
> 100 µM

---

System: SK-MEL-2 melanoma
Assay: NCI tumour cell line growth inhibition, 48 h
metric-name: GI50

Reference set, count: 10
compound	test-system	GI50
CCOC(=O)c1c(C)c2c(n1Cc1ccccc1)CSCC2=O	SK-MEL-2 melanoma	18.4 µM
CN(C)CCN1CCC(Cc2ccccc2)CC1	SK-MEL-2 melanoma	> 80 µM
CCSc1nc(N=Cc2ccccc2O)c2cn[nH]c2n1	SK-MEL-2 melanoma	39.9 µM
COc1ccc(CNc2c3ccccc3nc3ccccc23)cc1F	SK-MEL-2 melanoma	3.45 µM
O=c1[nH]c(-c2cccc(F)c2)cc2cc(F)ccc12	SK-MEL-2 melanoma	0.513 µM
Nc1c(C(=O)Nc2ccccn2)sc2nc3c(cc12)C(=O)CCC3	SK-MEL-2 melanoma	0.443 µM
COC(=O)/C=C/c1cc(OC(C)=O)c2c(c1)C(C(=O)OC)C(c1ccc(OC(C)=O)c(OC(C)=O)c1)O2 (configuration not stated)	SK-MEL-2 melanoma	3.69 µM
N#CC(I)CS(=O)(=O)c1ccccc1 (configuration not stated)	SK-MEL-2 melanoma	17.6 µM
C=C(C)C(C1C=C(CCC(C=O)=C(C)C)C(=O)O1)C1(OC)C=C(C)C(=O)O1 (configuration not stated)	SK-MEL-2 melanoma	> 100 µM
NC(=S)N/N=C/c1ncccc1O	SK-MEL-2 melanoma	21.3 µM

Consider the compound shown here: `Cc1nc2c(Br)cc(Br)cc2c(=O)n1-c1nnc(-c2cccc(Cl)c2Cl)c(N)n1` What is its recorded GI50?
27.4 µM

Query (compound): `CC(C)=CCC1=C(O)c2ccccc2C(=O)C1=O` ; field requested: GI50
68.7 µM

---

Tested on: MDA-MB-435
API: response.call in 1 (active), -1 (inactive)

Solved entries:
molecule	assigned-class
COc1ccc(-c2cc(=O)oc3c4c(ccc23)OCN(Cc2ccc(F)cc2)C4)cc1	-1
C[C@H](CCOc1cccc(CC(=O)O)c1)N(Cc1cccc(C(F)(F)F)c1Cl)CC(c1ccccc1)c1ccccc1	-1
COC(=O)/C=C/c1cc(OC(C)=O)c2c(c1)C(C(=O)OC)C(c1ccc(OC(C)=O)c(OC(C)=O)c1)O2 (centres undefined)	1

Now look at this entry.
Call for entry C=C(C)C(C1C=C(CCC(C=O)=C(C)C)C(=O)O1)C1(OC)C=C(C)C(=O)O1 (centres undefined) :
-1

---

System: OVCAR-5 ovarian
Assay: NCI tumour cell line growth inhibition, 48 h
Each record here notes measured TGI.

Please review the entries below; each comes with its answer.
molecule	test-system	measurement
N#CC(c1ccccc1)N(CCOCCOCCN(C(=O)c1ccccc1)C(C#N)c1ccccc1)C(=O)c1ccccc1 (stereo not given)	OVCAR-5 ovarian	> 100 µM
Nc1ncc2c(n1)-c1ccccc1OC2N1CCCC1 (stereo not given)	OVCAR-5 ovarian	> 100 µM
CO/N=C(/C(=O)OC)c1ccccc1COc1ccccc1C(F)(F)F	OVCAR-5 ovarian	> 100 µM

# get_value(readout= TGI, system= OVCAR-5 ovarian) for `O=C(c1ccc([N+](=O)[O-])cc1[N+](=O)[O-])N(/N=C/C=C/c1ccccc1)c1nnc(-c2ccccc2)c(-c2ccccc2)n1`
> 100 µM

# get_value(readout= TGI, system= OVCAR-5 ovarian) for OC(c1cc2cc(Cl)ccc2c2cc(C(F)(F)F)ccc12)C1CCCCN1 (stereo not given)
2.94 µM

Which TGI is reported with OVCAR-5 ovarian for this entry: OC(C#CCN1CCCC1)(c1ccccc1)c1ccccc1Cl (stereo not given) ?
> 100 µM

For the record `COc1cc2c3c(n(C)c(=O)c2cc1OC)-c1cc2c(cc1C3=O)OCO2` , what value of TGI is listed for OVCAR-5 ovarian?
> 100 µM

Report TGI for `O=Cc1cc2c(cc1-c1cc3c(cc1C=O)OCO3)OCO2` tested on OVCAR-5 ovarian.
> 100 µM

# returns recorded TGI (system: OVCAR-5 ovarian) for `CCCCCCCCc1cc2c(O)c(c1)Cc1cc(CCCCCCCC)cc(c1O)Cc1cc(CCCCCCCC)cc(c1O)Cc1cc(CCCCCCCC)cc(c1O)Cc1cc(CCCCCCCC)cc(c1O)Cc1cc(CCCCCCCC)cc(c1O)C2`
> 100 µM

Give the reported TGI for `C[C@H](CCOc1cccc(CC(=O)O)c1)N(Cc1cccc(C(F)(F)F)c1Cl)CC(c1ccccc1)c1ccccc1` (system: OVCAR-5 ovarian).
28.1 µM

Item `C=C(C)CNCCN` with OVCAR-5 ovarian - TGI?
> 100 µM

Fill in the recorded TGI for this molecule, with OVCAR-5 ovarian as test system: `C=C(C)[C@H]1C2=CC(C(=O)OC)=C(C[C@H](C(=C)C)[C@@H](O)[C@@H](O)C3=C[C@H]1OC3=O)O2`
> 100 µM

Item `CNc1[nH]c(=S)nc2sc3c(c12)CCCC3` with OVCAR-5 ovarian - TGI?
> 75 µM

Write down the reported TGI of `COCOCCC#CCO` , test system: OVCAR-5 ovarian.
> 100 µM

Could you share what TGI was measured for O=C(O)C(O)C(O)C(O)C(O)CO (stereo not given) , tested on OVCAR-5 ovarian?
> 100 µM

Which TGI is reported with OVCAR-5 ovarian for this entry: O=C1CSC2(CC(/C=C/c3cccs3)=NN2c2cccc(S(=O)(=O)O)c2)N1c1nc2ccccc2s1 (stereo not given) ?
> 100 µM

Please state recorded TGI (tested on OVCAR-5 ovarian) of COc1cc(/C=C2\CCCCC3=C2N=C2SC(C)=CN2C3c2cc(OC)c(OC)c(OC)c2)cc(OC)c1OC (stereo not given)
> 100 µM

State its TGI on OVCAR-5 ovarian: `O=C(Nc1ncc(Cc2cccc(C(F)(F)F)c2)s1)c1ccc2c(c1)OCCO2`
> 100 µM

Return TGI measured with OVCAR-5 ovarian given this molecule: `CC1(C)CCc2c(ccc(C(=O)/C=C/c3ccc(O)cc3)c2O)O1`
21.7 µM

Kindly state the measured TGI obtained for `COc1ccc(-c2nc3ccccc3c(=S)n2OC(C)=O)cc1` with OVCAR-5 ovarian.
> 25 µM

---

// TGI lookup, one value per entry
Test system: HOP-62 NSCLC
Experiment: NCI tumour cell line growth inhibition, 48 h

Here are 2 molecules together with their reported answers.
molecule	metric-name	measurement
CCc1n[nH]c(=O)n1-c1ccc2ccccc2c1	TGI	> 100 µM
CC(C)(C)c1ccc2c(c1)C#Cc1cc3c(cc1OCCCO2)C#Cc1cc(C(C)(C)C)ccc1OCCCO3	TGI	> 100 µM

I would be grateful if you could share the reported TGI for `COC(=O)C1=CN(CC2=CC(=O)C(C)=CC2=O)C=C(C(=O)OC)C1c1ccccc1OC` .
> 51 µM

What measured TGI goes with `O=c1cccc(C#CC#C[C@@H]2O[C@H]2CO)o1` ?
3.03 µM

TGI for `COc1cccc2c1O/C(=C\c1ccc([N+](=O)[O-])s1)C2=O` ?
> 100 µM
